Known pIC50 of a selection of sequences
molecular target: HLA-A*02:01; assay: IEDB peptide-MHC binding, purified MHC/competitive/radioactivity; bounds were set here for any values at or beyond the usual limits of such assays; details: source organism: Vaccinia virus WR
// scale note: pIC50 = -log10(conc_M); give the bare number

Guide cases for pIC50, answers given:
LIYDDNIDSI 6.18
IISLFYTFAI 6.54
FLCLLMKLSI 8.68
LISLINSLV 7.82
SLMDMITLSL 9.23
KLMIYGLPWM 7.96
YLSAKITTL 8.26
YLRLYIILA 6.72
FIHGGILYA 8.06
AAAATCALV 7.39

Consider the record given below.
Entry under review: `AVLLTYFCFV` . Reported pIC50?
8.47

====

molecular target: HLA-A*02:06; test: IEDB peptide-MHC binding, cellular MHC/competitive/fluorescence; bounds were set here for any values at or beyond the usual limits of such assays; conditions: source organism: Mammarenavirus machupoense
outcome measure: pIC50
// scale note: pIC50 = -log10(conc_M); give the bare number

Guide cases for pIC50, answers given:
LNVSYLCHL 4.86
KSYFTNAAL 4.92
LNIALVAVSL 4.88

Consider the record given below.
Lookup: pIC50 / HLA-A*02:06 / `SSWAVHWFS`
4.33

====

target: HLA-A*02:06; assay: IEDB peptide-MHC binding, purified MHC/competitive/radioactivity; bounds were set here for any values at or beyond the usual limits of such assays; details: source organism: Vaccinia virus WR
outcome measure: IC50 (nM)
Express the result in nM but write the number alone.

LALKNSQAEL 1250

Entry under review: `IVAMLLTHGA` . Reported IC50?
82

Entry under review: `GMQFDKVYL` . Reported IC50?
1900

Entry under review: `GVSGLYIPGT` . Reported IC50?
32

Entry under review: `IIGHIGHHYI` . Reported IC50?
1350

====

biological target: HLA-A*02:03; test: IEDB peptide-MHC binding, purified MHC/competitive/radioactivity; bounds were set here for any values at or beyond the usual limits of such assays; settings: source organism: Vaccinia virus WR
Known pIC50 of a selection of sequences
// scale note: pIC50 = -log10(conc_M); give the bare number

Guide cases for pIC50, answers given:
ELTSNCTRTT 5.83
QMAGVEVRYI 9.85
EVMPEKRNVV 5.58
NVSRVVECL 6.03
TTIGTIAGGV 7.37
HTNHSDISM 5.38
EIKAEMQLKI 5.32
LITNTKSDNI 5.51

Entry under review: `LVKESMASL` . Reported pIC50?
8.02

Entry under review: `CLTVPNITI` . Reported pIC50?
7.12

Entry under review: `WISDNTHIYL` . Reported pIC50?
8.92

====

target: HLA-A*02:01; assay: IEDB peptide-MHC binding, purified MHC/competitive/radioactivity; bounds were set here for any values at or beyond the usual limits of such assays; conditions: source organism: Mammarenavirus lassaense
pIC50: −log10 of the molar value.
Outcome label depends on pIC50 relative to 7: at/above gives MET, below gives NOT MET.

Record `FVFSTSFYL` ; criterion: pIC50 no lower than 7. Met?
MET

Record `GTMPSLTLA` ; criterion: pIC50 no lower than 7. Met?
NOT MET

Record `FSTSFYLISI` ; criterion: pIC50 no lower than 7. Met?
MET

Record `ALMDCIMFDA` ; criterion: pIC50 no lower than 7. Met?
MET

Record `LNCLSLLLSV` ; criterion: pIC50 no lower than 7. Met?
NOT MET

Record `LLMEGLKLLS` ; criterion: pIC50 no lower than 7. Met?
MET

Record `RMAWGGSYIA` ; criterion: pIC50 no lower than 7. Met?
NOT MET

Record `LLWDYMCIS` ; criterion: pIC50 no lower than 7. Met?
MET

Record `FVFSTSFYLI` ; criterion: pIC50 no lower than 7. Met?
NOT MET

Record `LMDCIMFDAA` ; criterion: pIC50 no lower than 7. Met?
NOT MET

====

target: HLA-A*02:03; test: IEDB peptide-MHC binding, purified MHC/competitive/radioactivity; bounds were set here for any values at or beyond the usual limits of such assays; conditions: source organism: Vaccinia virus WR
pIC50: −log10 of the molar value.
Outcome label depends on pIC50 relative to 6: at/above gives fulfilled, below gives not fulfilled.

SILSLETVKM fulfilled
NTVGMSIVCI not fulfilled
IIGHIGHHYI fulfilled

Record `IISYIILFIL` ; criterion: pIC50 no lower than 6. Met?
fulfilled

Record `LATLNTLIT` ; criterion: pIC50 no lower than 6. Met?
not fulfilled

Record `KTKISVEKI` ; criterion: pIC50 no lower than 6. Met?
fulfilled

Record `RVFKKIMSI` ; criterion: pIC50 no lower than 6. Met?
fulfilled

Record `IMDKEQLLKI` ; criterion: pIC50 no lower than 6. Met?
fulfilled

Record `MLNRVQILM` ; criterion: pIC50 no lower than 6. Met?
fulfilled

Record `QVKDNIISRT` ; criterion: pIC50 no lower than 6. Met?
fulfilled

Record `GTKGKLYIA` ; criterion: pIC50 no lower than 6. Met?
fulfilled

Record `ILSCIFAFI` ; criterion: pIC50 no lower than 6. Met?
fulfilled

Record `MLDDFSAGA` ; criterion: pIC50 no lower than 6. Met?
fulfilled

Record `QLVFNSISA` ; criterion: pIC50 no lower than 6. Met?
not fulfilled

Record `ILHNIYRLFT` ; criterion: pIC50 no lower than 6. Met?
fulfilled

Record `IMFMLIFNV` ; criterion: pIC50 no lower than 6. Met?
fulfilled

Record `LLWFLTGTFV` ; criterion: pIC50 no lower than 6. Met?
fulfilled

Record `DLKHATDYIA` ; criterion: pIC50 no lower than 6. Met?
not fulfilled

Record `AIFNNRNLA` ; criterion: pIC50 no lower than 6. Met?
fulfilled

====

Known pIC50 of a selection of sequences
target: HLA-A*02:06; assay: IEDB peptide-MHC binding, purified MHC/competitive/radioactivity; bounds were set here for any values at or beyond the usual limits of such assays; conditions: source organism: Vaccinia virus WR
// scale note: pIC50 = -log10(conc_M); give the bare number

Guide cases for pIC50, answers given:
MLTNAISSRV 6.65
NTIDKSSPL 7.72
SMSQELAEL 6.73

Consider the record given below.
Lookup: pIC50 / HLA-A*02:06 / `CAVIPFDDI`
5.93

====

target: HLA-A*02:01; assay: IEDB peptide-MHC binding, cellular MHC/competitive/fluorescence; bounds were set here for any values at or beyond the usual limits of such assays; settings: source organism: Vaccinia virus WR
outcome measure: pIC50
// scale note: pIC50 = -log10(conc_M); give the bare number

Guide cases for pIC50, answers given:
EVTPEYIKDL 5.19
IVRDMLVNRM 4.84
EVIGLTTHCT 4.61
TTSDYQDSDV 4.92
PVVFYRSGT 4.81

Entry under review: `DILQMREIIT` . Reported pIC50?
4.51

Entry under review: `NASKTINAL` . Reported pIC50?
4.57

Entry under review: `LTTLSRHIFM` . Reported pIC50?
5.23

Entry under review: `LIKTLSPAHL` . Reported pIC50?
4.93

====

biological target: HLA-B*35:01; assay: IEDB peptide-MHC binding, purified MHC/competitive/radioactivity; bounds were set here for any values at or beyond the usual limits of such assays; conditions: source organism: Mammarenavirus machupoense
outcome measure: pIC50
// scale note: pIC50 = -log10(conc_M); give the bare number

Lookup: pIC50 / HLA-B*35:01 / `MLNNSFYYM`
6.30

====

molecular target: HLA-A*68:02; experiment: IEDB peptide-MHC binding, purified MHC/competitive/radioactivity; bounds were set here for any values at or beyond the usual limits of such assays; conditions: source organism: Vaccinia virus WR
Known pIC50 of a selection of sequences
// scale note: pIC50 = -log10(conc_M); give the bare number

Guide cases for pIC50, answers given:
DLTALLSCI 5.75
RIEDMFLTSV 5.84
DVNSVQFSI 7.59
LTSNCTRTT 5.69
FIPIIYSKA 7.11

Lookup: pIC50 / HLA-A*68:02 / `ALKAYFTAKI`
5.39

Lookup: pIC50 / HLA-A*68:02 / `NTCKPTILAT`
5.78

Lookup: pIC50 / HLA-A*68:02 / `RIYCSLFKNV`
6.26

Lookup: pIC50 / HLA-A*68:02 / `MAFDISVNA`
8.74

Lookup: pIC50 / HLA-A*68:02 / `ITRLEVIGLT`
5.93

====

biological target: HLA-A*23:01; assay: IEDB peptide-MHC binding, cellular MHC/competitive/fluorescence; bounds were set here for any values at or beyond the usual limits of such assays; details: source organism: Vaccinia virus WR
outcome measure: pIC50
// scale note: pIC50 = -log10(conc_M); give the bare number

Guide cases for pIC50, answers given:
TQVKELGIAI 4.41
EQRRSTIFDI 4.29
VQTIVFIWFI 4.48
LQQNNSFII 5.05
YQNEVTPEYI 4.57
SQAKKPEVRI 4.29

Entry under review: `QQFANVISKI` . Reported pIC50?
4.91

Entry under review: `CQCTVQEFI` . Reported pIC50?
4.35
